Listing of entries alongside the reported CC50.
test system: CEM-SS cells; assay: Compound cytotoxicity (MTS) in the HIV cytoprotection assay; format: cell-based; settings: Concentration resulting in 50% cell death
Measured endpoint: CC50 (µM)

CCNc1[nH]c(=O)n(O)c(=O)c1C(=O)NCc1ccc(F)cc1    19
CCNc1[nH]c(=O)n(O)c(=O)c1C(=O)NCc1ccc(Cl)c(F)c1    19
CCNc1[nH]c(=O)n(O)c(=O)c1C(=O)NCc1ccc(F)c(F)c1    21
CCNc1[nH]c(=O)n(O)c(=O)c1C(=O)NCc1ccc(C)c(F)c1    20

====

Listing of entries alongside the reported Cell viability %.
tested on: CEM-SS cells; experiment: Compound cytotoxicity (MTS) in the HIV cytoprotection assay; type: cell-based; conditions: 10 μM; CEM-SS cells
Measured endpoint: Cell viability % (%)

CCNc1[nH]c(=O)n(O)c(=O)c1C(=O)NCc1cccc(F)c1    90
CCNc1[nH]c(=O)n(O)c(=O)c1C(=O)NCc1cc(F)cc(F)c1    100
CCNc1[nH]c(=O)n(O)c(=O)c1C(=O)NCCc1ccccc1    87
CCNc1[nH]c(=O)n(O)c(=O)c1C(=O)NCc1cc(F)ccc1Cl    73
Nc1[nH]c(=O)n(O)c(=O)c1C(=O)NCc1ccccc1    100
O=C(NCc1cccc(F)c1)c1c(Nc2ccc(-c3ccccc3)cc2)[nH]c(=O)n(O)c1=O    8.7
CCCNc1[nH]c(=O)n(O)c(=O)c1C(=O)NCc1cccc(Cl)c1F    48
CCNc1[nH]c(=O)n(O)c(=O)c1C(=O)NCc1ccc(Cl)c(F)c1    100

====

Tested on: HIV-1IIIB
Experiment: HIV-1 cytoprotection (CPE reduction) antiviral assay
Format: cell-based
Details: Human immunodeficiency virus 1; 10 μM; HIV-1IIIB in CEM-SS cells; read-out: CPE reduction %
Method: The antiviral activity of newly synthesized analogues of chemotype 7 was evaluated against HIV-1IIIB in CEM-SS cells using an assay based on viral cytopathic effect (CPE). In this assay, the reduction of CPE was used to indicate the antiviral activity of a compound. Briefly virus and cells were mixed in the presence of test compound and incubated for 6 days. […]
Listing of entries alongside the reported inhibition at 10 µM.
Measured endpoint: inhibition at 10 µM (%)

O=C(NCc1ccc(F)cc1)c1c(Nc2ccc(-c3ccccc3)cc2)[nH]c(=O)n(O)c1=O    0
CCNc1[nH]c(=O)n(O)c(=O)c1C(=O)Nc1ccccc1    11
O=C(NCc1cccc(F)c1)c1c(Nc2ccc(-c3ccccc3)cc2)[nH]c(=O)n(O)c1=O    0
CCNc1[nH]c(=O)n(O)c(=O)c1C(=O)NCc1ccc(F)cc1F    92
CCNc1[nH]c(=O)n(O)c(=O)c1C(=O)NCc1cc(F)cc(F)c1    100
CCNc1[nH]c(=O)n(O)c(=O)c1C(=O)NCc1cc(F)ccc1Cl    62
CCNc1[nH]c(=O)n(O)c(=O)c1C(=O)NCc1cccc(Cl)c1F    100
CCCNc1[nH]c(=O)n(O)c(=O)c1C(=O)NCc1cccc(Cl)c1F    33

====

test system: CEM-SS cells; test: Compound cytotoxicity (MTS) in the HIV cytoprotection assay; assay type: cell-based; settings: 10 μM; CEM-SS cells
Measured endpoint: Cell viability % (%)

CNc1[nH]c(=O)n(O)c(=O)c1C(=O)NCc1cccc(Cl)c1F [Compound 7-xiv]    100
O=C(NCc1ccccc1)c1c(Nc2ccc(-c3ccccc3)cc2)[nH]c(=O)n(O)c1=O [Compound 7-ii]    13
CNc1[nH]c(=O)n(O)c(=O)c1C(=O)NCc1ccccc1 [Compound 7-v]    98
CCNc1[nH]c(=O)n(O)c(=O)c1C(=O)NCc1ccc(C)c(F)c1 [Compound 7-xxiv]    100

====

tested on: CEM-SS cells; experiment: Compound cytotoxicity (MTS) in the HIV cytoprotection assay; format: cell-based; conditions: 10 μM; CEM-SS cells
Strictly below 90% in Cell viability %: class 1. Otherwise: class 0.

CCNc1[nH]c(=O)n(O)c(=O)c1C(=O)NCCCl    class 0
O=C(NCc1ccccc1)c1c(Nc2ccccc2)[nH]c(=O)n(O)c1=O    class 1
CCCNc1[nH]c(=O)n(O)c(=O)c1C(=O)NCc1ccccc1    class 0
CCNc1[nH]c(=O)n(O)c(=O)c1C(=O)NCc1ccc(F)c(F)c1    class 0
O=C(NCc1ccc(F)cc1)c1c(Nc2ccc(-c3ccccc3)cc2)[nH]c(=O)n(O)c1=O    class 1

====

Listing of entries alongside the reported CC50.
System: CEM-SS cells
Experiment: Compound cytotoxicity (MTS) in the HIV cytoprotection assay
Type: cell-based
Settings: Concentration resulting in 50% cell death
Method: The antiviral activity of newly synthesized analogues of chemotype 7 was evaluated against HIV-1IIIB in CEM-SS cells using an assay based on viral cytopathic effect (CPE). In this assay, the reduction of CPE was used to indicate the antiviral activity of a compound. Briefly virus and cells were mixed in the presence of test compound and incubated for 6 days. […]
Measured endpoint: CC50 (µM)

CCNc1[nH]c(=O)n(O)c(=O)c1C(=O)NCc1cccc(Cl)c1F [Compound 7-xxiii]    18
CCNc1[nH]c(=O)n(O)c(=O)c1C(=O)NCc1ccccc1 [Compound 7-vi]    23
CNc1[nH]c(=O)n(O)c(=O)c1C(=O)NCc1ccccc1 [Compound 7-v]    58

====

target: HIV-1 integrase (Human immunodeficiency virus type 1 group M subtype B, UniProt P04585); construct: HIV integrase was expressed and purified as previously reported; made in house; host or cells: Escherichia coli; experiment: HIV-1 integrase strand transfer (INST) assay; assay type: biochemical; settings: read-out: INST IC50
Strictly below 80 nM in IC50: Y. Otherwise: N.

CCNc1[nH]c(=O)n(O)c(=O)c1C(=O)NCc1ccccc1 [Compound 7-vi]    Y
CCCNc1[nH]c(=O)n(O)c(=O)c1C(=O)NCc1ccccc1 [Compound 7-vii]    Y
Nc1[nH]c(=O)n(O)c(=O)c1C(=O)NCc1ccccc1 [Compound 7-xi]    N
CCNc1[nH]c(=O)n(O)c(=O)c1C(=O)NCc1ccc(F)cc1 [Compound 7-xvi]    Y
CCNc1[nH]c(=O)n(O)c(=O)c1C(=O)NCc1cc(F)ccc1Cl [Compound 7-xxi]    N
CCNc1[nH]c(=O)n(O)c(=O)c1C(=O)NCc1cc(F)cc(F)c1 [Compound 7-xix]    N
CCNc1[nH]c(=O)n(O)c(=O)c1C(=O)NCc1ccc(F)c(F)c1 [Compound 7-xx]    Y
CCNc1[nH]c(=O)n(O)c(=O)c1C(=O)NCc1cc(F)ccc1F [Compound 7-xvii]    Y
CNc1[nH]c(=O)n(O)c(=O)c1C(=O)NCc1cccc(F)c1 [Compound 7-xii]    N
O=C(NCc1ccc(F)cc1)c1c2n(c(=O)n(O)c1=O)CCCN2 [Compound 17]    N
O=C(NCc1ccc(F)cc1)c1c(Nc2ccc(-c3ccccc3)cc2)[nH]c(=O)n(O)c1=O [Compound 7-iv]    N
O=C(NCc1ccccc1)c1c(O)n(O)c(=O)[nH]c1=O [Compound 16]    N
CCNc1[nH]c(=O)n(O)c(=O)c1C(=O)NCc1cccc(Cl)c1F [Compound 7-xxiii]    Y
CCNc1[nH]c(=O)n(O)c(=O)c1C(=O)NCCc1ccccc1 [Compound 7-xxvi]    N
CCNc1[nH]c(=O)n(O)c(=O)c1C(=O)Nc1ccccc1 [Compound 7-xxv]    N
CCNc1[nH]c(=O)n(O)c(=O)c1C(=O)NCc1ccc(F)cc1F [Compound 7-xviii]    Y

====

system: HIV-1IIIB; assay: HIV-1 cytoprotection (CPE reduction) antiviral assay; format: cell-based; details: Human immunodeficiency virus 1; 10 μM; HIV-1IIIB in CEM-SS cells; read-out: CPE reduction %
Measured endpoint: inhibition at 10 µM (%)

CCNc1[nH]c(=O)n(O)c(=O)c1C(=O)NCc1ccc(Cl)c(F)c1    100
CNc1[nH]c(=O)n(O)c(=O)c1C(=O)NCc1cccc(F)c1    100
CCNc1[nH]c(=O)n(O)c(=O)c1C(=O)NCc1cccc(F)c1    100
CC(C)Nc1[nH]c(=O)n(O)c(=O)c1C(=O)NCc1ccccc1    0
CC(C)(C)Nc1[nH]c(=O)n(O)c(=O)c1C(=O)NCc1ccccc1    98
CNc1[nH]c(=O)n(O)c(=O)c1C(=O)NCc1ccc(F)cc1    100
CNc1[nH]c(=O)n(O)c(=O)c1C(=O)NCc1cccc(Cl)c1F    100
CNc1[nH]c(=O)n(O)c(=O)c1C(=O)NCc1ccccc1    100
O=C(NCc1ccccc1)c1c(NC2CC2)[nH]c(=O)n(O)c1=O    98
CCNc1[nH]c(=O)n(O)c(=O)c1C(=O)NCc1ccc(C)c(F)c1    100
CCCNc1[nH]c(=O)n(O)c(=O)c1C(=O)NCc1ccccc1    100
Nc1[nH]c(=O)n(O)c(=O)c1C(=O)NCc1ccccc1    99
CCNc1[nH]c(=O)n(O)c(=O)c1C(=O)NCCc1ccccc1    99
